Reported IC50 for target or system Cannabinoid receptor 1 (Rattus norvegicus, UniProt P20272), by entry.
READOUT_LABEL: IC50 (nM)

{"SMILES_CODE": "Cc1nnc(-c2c(-c3nnc(C4(C(F)(F)F)CC4)o3)nn(-c3ccc(Cl)cc3Cl)c2-c2ccc(Br)cc2)o1", "OBS_VALUE": 4.7}
{"SMILES_CODE": "Cc1nnc(-c2c(-c3nnc(C(C)(C)C)o3)nn(-c3ccc(Cl)cc3Cl)c2-c2ccc(Br)cc2)s1", "OBS_VALUE": 3.69}
{"SMILES_CODE": "Cc1nnc(-c2c(-c3nnc(C4(C(F)(F)F)CC4)s3)nn(-c3ccc(Cl)cc3Cl)c2-c2ccc(Br)cc2)s1", "OBS_VALUE": 4.21}

----------
ASSAY_OVERVIEW: Cmax in rat at 5 mg/kg, po after 1.3 hrs
Assay type: ADME, organism-based
Design: dose 5 mg/kg, route oral
CONDITION_PARAMETERS: in vivo

{"SMILES_CODE": "Cc1nnc(-c2c(-c3nnc(C4(C(F)(F)F)CC4)o3)nn(-c3ccc(Cl)cc3Cl)c2-c2ccc(Br)cc2)s1", "UNIT_NAME": "ng/mL", "Cmax": 30}

----------
TARGET: Cannabinoid receptor 2 (Homo sapiens, UniProt P34972)
Sequence (P34972 whole entry): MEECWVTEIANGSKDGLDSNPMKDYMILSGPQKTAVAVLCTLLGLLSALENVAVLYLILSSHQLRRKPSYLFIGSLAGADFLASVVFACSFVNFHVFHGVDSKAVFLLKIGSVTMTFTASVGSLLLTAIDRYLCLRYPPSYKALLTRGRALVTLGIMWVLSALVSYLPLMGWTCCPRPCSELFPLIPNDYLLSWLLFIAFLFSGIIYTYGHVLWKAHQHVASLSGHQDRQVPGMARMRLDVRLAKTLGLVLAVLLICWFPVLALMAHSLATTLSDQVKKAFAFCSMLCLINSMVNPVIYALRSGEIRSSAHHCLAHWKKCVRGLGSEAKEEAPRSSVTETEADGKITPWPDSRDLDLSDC
ASSAY_OVERVIEW: Displacement of [3H]WIN-552122 from human CB2 receptor expressed in CHOK1 cells
pIC50: −log10 of the molar value.
READOUT_LABEL: pIC50

{"SMILES_CODE": "Cc1nnc(-c2c(-c3nnc(C4(C(F)(F)F)CC4)o3)nn(-c3ccc(Cl)cc3Cl)c2-c2ccc(Br)cc2)s1", "TARGET": "Cannabinoid receptor 2 (Homo sapiens, UniProt P34972)", "READOUT_LABEL": "pIC50", "MODIFIER_SIGN": "=", "OBS_VALUE": 6.61}
{"SMILES_CODE": "Cc1nnc(-c2c(-c3nnc(C(C)(C)C)o3)nn(-c3ccc(Cl)cc3Cl)c2-c2ccc(Br)cc2)o1", "TARGET": "Cannabinoid receptor 2 (Homo sapiens, UniProt P34972)", "READOUT_LABEL": "pIC50", "MODIFIER_SIGN": "=", "OBS_VALUE": 6.38}
{"SMILES_CODE": "Cc1nnc(-c2c(-c3nnc(C(C)(C)C)s3)nn(-c3ccc(Cl)cc3Cl)c2-c2ccc(Br)cc2)s1", "TARGET": "Cannabinoid receptor 2 (Homo sapiens, UniProt P34972)", "READOUT_LABEL": "pIC50", "MODIFIER_SIGN": "=", "OBS_VALUE": 6.37}
{"SMILES_CODE": "Cc1nnc(-c2c(-c3nnc(C4(c5ccc(Cl)cc5)CC4)s3)nn(-c3ccc(Cl)cc3Cl)c2-c2ccc(Br)cc2)s1", "TARGET": "Cannabinoid receptor 2 (Homo sapiens, UniProt P34972)", "READOUT_LABEL": "pIC50", "MODIFIER_SIGN": "<", "OBS_VALUE": 5.00}

----------
ASSAY_OVERVIEW: Selectivity ratio of IC50 for human CB2 to IC50 for rat CB1

{"SMILES_CODE": "Cc1nnc(-c2c(-c3nnc(C(C)(C)C)s3)nn(-c3ccc(Cl)cc3Cl)c2-c2ccc(Br)cc2)s1", "MODIFIER_SIGN": "=", "Ratio IC50": 167}
{"SMILES_CODE": "Cc1nnc(-c2c(-c3nnc(C(C)(C)C)o3)nn(-c3ccc(Cl)cc3Cl)c2-c2ccc(Br)cc2)o1", "MODIFIER_SIGN": "=", "Ratio IC50": 162}
{"SMILES_CODE": "Cc1nnc(-c2c(-c3nnc(C4(c5ccc(Cl)cc5)CC4)s3)nn(-c3ccc(Cl)cc3Cl)c2-c2ccc(Br)cc2)s1", "MODIFIER_SIGN": ">", "Ratio IC50": 2700}
{"SMILES_CODE": "Cc1nnc(-c2c(-c3nnc(C4(C(F)(F)F)CC4)o3)nn(-c3ccc(Cl)cc3Cl)c2-c2ccc(Br)cc2)s1", "MODIFIER_SIGN": "=", "Ratio IC50": 142}

----------
System: Rattus norvegicus
ASSAY_OVERVIEW: Systemic clearance in rat at 5 mg/kg, po
Format: ADME, organism-based
Parameters: dose 5 mg/kg, route oral
CONDITION_PARAMETERS: in vivo

{"SMILES_CODE": "Cc1nnc(-c2c(-c3nnc(C4(C(F)(F)F)CC4)o3)nn(-c3ccc(Cl)cc3Cl)c2-c2ccc(Br)cc2)s1", "clearance [mL/min/kg]": 12.6}

----------
TARGET: Cannabinoid receptor 1 (Homo sapiens) (UniProt P21554)
Sequence (P21554 whole entry, looked up): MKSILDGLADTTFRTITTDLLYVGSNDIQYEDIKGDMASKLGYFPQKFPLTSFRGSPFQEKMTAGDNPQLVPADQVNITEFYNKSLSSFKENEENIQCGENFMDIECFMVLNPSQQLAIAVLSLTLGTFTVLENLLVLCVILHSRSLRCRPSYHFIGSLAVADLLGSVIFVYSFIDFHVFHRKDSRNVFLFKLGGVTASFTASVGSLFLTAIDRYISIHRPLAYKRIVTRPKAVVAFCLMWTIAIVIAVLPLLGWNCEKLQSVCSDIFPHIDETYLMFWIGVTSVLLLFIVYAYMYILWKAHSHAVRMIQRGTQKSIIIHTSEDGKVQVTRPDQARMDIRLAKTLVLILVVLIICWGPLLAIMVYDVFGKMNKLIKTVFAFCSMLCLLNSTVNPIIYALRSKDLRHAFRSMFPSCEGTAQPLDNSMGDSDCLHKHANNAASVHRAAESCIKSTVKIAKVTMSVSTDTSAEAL
ASSAY_OVERVIEW: Binding affinity to human CB1 receptor expressed in CHO cells by luciferase reporter gene assay
pIC50: −log10 of the molar value.

{"SMILES_CODE": "Cc1nnc(-c2c(-c3nnc(C4(C(F)(F)F)CC4)o3)nn(-c3ccc(Cl)cc3Cl)c2-c2ccc(Br)cc2)s1", "pIC50": 7.41}

----------
ASSAY_OVERVIEW: Elimination half life in rat at 5 mg/kg, po
Format: ADME, organism-based
Parameters: dose 5 mg/kg, route oral
CONDITION_PARAMETERS: in vivo, read-out: beta t1/2 (converted)

{"SMILES_CODE": "Cc1nnc(-c2c(-c3nnc(C4(C(F)(F)F)CC4)o3)nn(-c3ccc(Cl)cc3Cl)c2-c2ccc(Br)cc2)s1", "UNIT_NAME": "h", "half-life": 18.4}

----------
TARGET: Cannabinoid receptor 1 (Rattus norvegicus, UniProt P20272)
Sequence (P20272 whole entry): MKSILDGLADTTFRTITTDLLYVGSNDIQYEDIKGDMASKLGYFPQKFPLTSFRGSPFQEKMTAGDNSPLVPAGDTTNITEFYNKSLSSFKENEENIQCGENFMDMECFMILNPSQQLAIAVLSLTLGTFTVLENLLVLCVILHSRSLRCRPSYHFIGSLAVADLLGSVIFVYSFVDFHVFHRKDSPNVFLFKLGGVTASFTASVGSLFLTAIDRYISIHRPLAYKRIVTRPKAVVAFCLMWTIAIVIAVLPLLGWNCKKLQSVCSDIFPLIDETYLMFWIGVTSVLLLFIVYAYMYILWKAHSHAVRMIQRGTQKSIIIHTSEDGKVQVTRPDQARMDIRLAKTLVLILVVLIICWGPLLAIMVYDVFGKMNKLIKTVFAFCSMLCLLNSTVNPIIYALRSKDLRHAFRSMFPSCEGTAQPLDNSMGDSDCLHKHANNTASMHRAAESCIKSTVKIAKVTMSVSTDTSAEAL
ASSAY_OVERVIEW: Displacement of [3H]CP-55940 from CB1 receptor in Sprague-Dawley rat cerebellar membrane
Set-up: species or system Cerebellum
pIC50: −log10 of the molar value.

{"SMILES_CODE": "Cc1nnc(-c2c(-c3nnc(C(C)(C)C)o3)nn(-c3ccc(Cl)cc3Cl)c2-c2ccc(Br)cc2)o1", "pIC50": 8.59}
{"SMILES_CODE": "Cc1nnc(-c2c(-c3nnc(C4(C(F)(F)F)CC4)o3)nn(-c3ccc(Cl)cc3Cl)c2-c2ccc(Cl)cc2)o1", "pIC50": 7.83}
{"SMILES_CODE": "Cc1nnc(-c2c(-c3nnc(C(C)(C)C)o3)nn(-c3ccc(Cl)cc3Cl)c2-c2ccc(Cl)cc2)o1", "pIC50": 8.19}
{"SMILES_CODE": "Cc1nnc(-c2c(-c3nnc(C4(c5ccc(Cl)cc5)CC4)o3)nn(-c3ccc(Cl)cc3Cl)c2-c2ccc(Cl)cc2)s1", "pIC50": 7.99}
{"SMILES_CODE": "Cc1nnc(-c2c(-c3nnc(C4(C(F)(F)F)CC4)o3)nn(-c3ccc(Cl)cc3Cl)c2-c2ccc(Cl)cc2)s1", "pIC50": 8.38}
{"SMILES_CODE": "Cc1nnc(-c2c(-c3nnc(C4(C(F)(F)F)CC4)s3)nn(-c3ccc(Cl)cc3Cl)c2-c2ccc(Cl)cc2)o1", "pIC50": 7.57}
{"SMILES_CODE": "Cc1nnc(-c2c(-c3nnc(C4(c5ccc(Cl)cc5)CC4)o3)nn(-c3ccc(Cl)cc3Cl)c2-c2ccc(Br)cc2)o1", "pIC50": 8.31}
{"SMILES_CODE": "Cc1nnc(-c2c(-c3nnc(C4(c5ccc(Cl)cc5)CC4)o3)nn(-c3ccc(Cl)cc3Cl)c2-c2ccc(Br)cc2)s1", "pIC50": 8.67}
